# targetUnderTest: T1, biotinylated human PD1-His/AviTag (human, UniProt Q15116 25-170, limits assumed, biotinylated)
# T1 construct: also called human PD1 protein (Alphascreen); not shown: His/AviTag
# T1 sequence (Q15116 25-170 limits assumed): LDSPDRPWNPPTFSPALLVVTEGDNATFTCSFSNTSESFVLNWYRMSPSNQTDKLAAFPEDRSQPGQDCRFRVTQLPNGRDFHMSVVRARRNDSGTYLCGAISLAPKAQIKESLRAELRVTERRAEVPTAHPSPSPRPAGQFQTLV
# experimentSummary: Alphascreen epitope competition, Fab periprep; competitor hMAb005 IgG1 null on biotinylated human PD1-His/AviTag
Consider the following binders and their measured percentage signal reduction of hMAb005/PD1 interaction readings.

MAB05E08 Fab (Fab, V domains shown, Library-derived clone screened as human IgG1-kappa Fab in E. coli periplasmic extract; also called MAB05E08 (periprep Fab)) VH: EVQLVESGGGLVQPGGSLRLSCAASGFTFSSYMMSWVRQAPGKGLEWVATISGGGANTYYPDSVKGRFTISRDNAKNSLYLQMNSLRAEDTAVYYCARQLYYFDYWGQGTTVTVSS VL: DIQMTQSPSSLSASVGDRVTITCLASQTIGTWLTWYQQKPGKAPKLLIYTATSLADGVPSRFSGSGSGTDFTLTISSLQPEDFATYYCQQVSVTPFTFGGGTKVEIK :: > 75%

Would you kindly share the measured percentage signal reduction of hMAb005/PD1 interaction for MAB05G03 Fab (Fab, V domains shown, Library-derived clone screened as human IgG1-kappa Fab in E. coli periplasmic extract; also called MAB05G03 (periprep Fab)) VH: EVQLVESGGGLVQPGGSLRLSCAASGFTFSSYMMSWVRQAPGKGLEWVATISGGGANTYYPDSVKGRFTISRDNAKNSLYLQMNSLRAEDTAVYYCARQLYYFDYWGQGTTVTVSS VL: DIQMTQSPSSLSASVGDRVTITCLASQTIGTWLTWYQQKPGKAPKLLIYTATSLADGVPSRFSGSGSGTDFTLTISSLQPEDFATYYCQQVAELPFGFGGGTKVEIK ?
> 75%
